Could you please report measured pEC50 for the items listed next?
molecular target: Glucokinase regulatory protein (Mus musculus, UniProt Q91X44); assay: Induction of GK translocation from nucleus to cytoplasm of mouse hepatocytes preincubated for 20 mins followed by glucose challenge measured after 40 mins by Hoechst 33342 staining-based assay
Sequence (Q91X44 whole entry): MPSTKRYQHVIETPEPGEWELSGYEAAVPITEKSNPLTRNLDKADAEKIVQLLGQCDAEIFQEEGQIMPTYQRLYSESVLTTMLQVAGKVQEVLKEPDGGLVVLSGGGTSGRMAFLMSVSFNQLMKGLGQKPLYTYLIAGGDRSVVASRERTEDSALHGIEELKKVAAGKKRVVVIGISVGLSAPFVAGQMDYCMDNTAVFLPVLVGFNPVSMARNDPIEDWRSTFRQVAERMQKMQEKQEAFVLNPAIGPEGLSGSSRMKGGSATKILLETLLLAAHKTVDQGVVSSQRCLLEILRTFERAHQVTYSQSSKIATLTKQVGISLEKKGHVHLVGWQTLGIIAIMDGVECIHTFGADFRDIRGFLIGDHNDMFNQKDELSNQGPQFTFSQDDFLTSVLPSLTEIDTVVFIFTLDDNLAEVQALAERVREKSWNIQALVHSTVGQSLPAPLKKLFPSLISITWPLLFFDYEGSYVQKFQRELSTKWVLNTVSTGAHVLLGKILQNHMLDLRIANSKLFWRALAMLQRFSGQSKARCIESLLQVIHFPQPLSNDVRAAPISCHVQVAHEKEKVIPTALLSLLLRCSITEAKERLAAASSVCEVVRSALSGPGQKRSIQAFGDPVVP
pEC50: −log10 of the molar value.

Q: Using the record for Nc1cc(S(=O)(=O)N2CCN(c3ccc(C(O)(C(F)(F)F)C(F)(F)F)cc3)CC2)ccn1 , state its measured pEC50.
Ans: < 4.90

Q: Using the record for C[C@@](O)(c1ccc(N2CCN(S(=O)(=O)c3cccs3)C[C@@H]2CN2[C@@H]3COC[C@H]2[C@@H](O)C3)cc1)C(F)(F)F , state its measured pEC50.
Ans: 5.78

Q: Using the record for CC(C)(C)C#CC1CN(S(=O)(=O)c2ccc(N)nc2)CCN1c1ccc(C(O)(C(F)(F)F)C(F)(F)F)cc1 (racemic) , state its measured pEC50.
Ans: < 4.90

Q: Using the record for Nc1ccc(S(=O)(=O)N2CCN(c3ccc(C(O)(C(F)(F)F)C(F)(F)F)cc3)CC2)cc1 , state its measured pEC50.
Ans: < 4.90

* * *

Could you please report measured microsomal CLint at 1 µM for the items listed next?
assay: Intrinsic clearance in rat liver microsomes at 1 uM after 30 mins in presence of NADPH; type: ADME; conditions: read-out: CLH

Q: Using the record for CC(O)(c1ccc(N2CCN(S(=O)(=O)c3cccs3)C[C@@H]2CN2C3CCC2COC3)cc1)C(F)(F)F (mixture of isomers) , state its measured microsomal CLint at 1 µM.
Ans: > 399 µL/min/mg

Q: Using the record for Nc1ncc(S(=O)(=O)N2CCN(c3ccc(C(O)(C(F)(F)F)C(F)(F)F)cc3)CC2)cn1 , state its measured microsomal CLint at 1 µM.
Ans: < 14 µL/min/mg

Q: Using the record for C[C@H]1COCCN1C[C@H]1CN(S(=O)(=O)c2cccs2)CCN1c1ccc(C(C)(O)C(F)(F)F)cc1 (mixture of isomers) , state its measured microsomal CLint at 1 µM.
Ans: > 399 µL/min/mg

* * *

Could you please report measured microsomal CLint at 1 µM for the items listed next?
test: Intrinsic clearance in human liver microsomes at 1 uM after 30 mins in presence of NADPH; format: ADME; settings: read-out: CLH
# value in µL/min/mg; strip the unit string

Q: Using the record for C[C@](O)(c1ccc(N2CCN(S(=O)(=O)c3cccs3)C[C@@H]2CN2[C@@H]3COC[C@H]2[C@@H](O)C3)cc1)C(F)(F)F , state its measured microsomal CLint at 1 µM.
Ans: 131

Q: Using the record for C[C@](O)(c1ccc(N2CCN(S(=O)(=O)c3cccs3)C[C@@H]2CN2[C@H]3COC[C@@H]2[C@H](O)C3)cc1)C(F)(F)F , state its measured microsomal CLint at 1 µM.
Ans: 135

Q: Using the record for C[C@H]1COCCN1C[C@H]1CN(S(=O)(=O)c2cccs2)CCN1c1ccc(C(C)(O)C(F)(F)F)cc1 (mixture of isomers) , state its measured microsomal CLint at 1 µM.
Ans: 451

Q: Using the record for CC(O)(c1ccc(N2CCN(S(=O)(=O)c3cccs3)C[C@@H]2CN2CCS(=O)(=O)CC2)cc1)C(F)(F)F (mixture of isomers) , state its measured microsomal CLint at 1 µM.
Ans: 92
